Recorded values, source patent US12458605B2.

Assay: Storage stability of FlucmRNA-loaded LNP at −80, 5, 25 and 40° C.
Assay type: physicochemical
Settings: maximum storage period 5 weeks
In this section, each of the compounds is paired with its reported period for which quality remained good, 40° C. (weeks).
Numeric only. Scale: weeks

CCCCCCCCCC(CCCCCCC)C(=O)OCCCCCCC(O)(CCCCCCOC(=O)C(CCCCCCC)CCCCCCCCC)CCCCOC(=O)C1CCN(C)CC1 (stereo not drawn) [CL15F 11-7] ... 5

Form: compound = CCCCCCCCCCC(CCCCCCCCCC)C(=O)OCCCCCCC(O)(CCCCCCOC(=O)C(CCCCCCCCCC)CCCCCCCCCC)CCCCOC(=O)C1CCN(C)CC1 [CL15F 12-10] ; period for which quality remained good, 40° C. (weeks) = 5

###

Assay: Average particle size (ζ-Average) and PDI by dynamic light scattering (Zetasizer Nano ZSP)
Assay type: physicochemical
Conditions: FlucmRNA-loaded LNP, lipid:DSPC:cholesterol:DMG-PEG2K 50:10:38.5:1.5
parameter: ζ-Average (nm)
Answer with a number only, understood to be in nm.

Just so you know, measured ζ-Average (nm) for CCCCCCCCC(CCCC)C(=O)OCCCCCCC(O)(CCCCCCOC(=O)C(CCCC)CCCCCCCC)CCCCN(CCC)CCC (stereo not shown) came out at 84.92

###

Test: Average particle size (ζ-Average) and PDI by dynamic light scattering (Zetasizer Nano ZSP)
Type: physicochemical
Conditions: FlucmRNA-loaded LNP, 50:10:38.5:1.5
Quick rule for you: PDI at 0.03 or higher means criterion met, lower means criterion not met.

[in] Check the entry CCCCCCCC(CCCCCC)C(=O)OCCCCCCC(O)(CCCCCCOC(=O)C(CCCCCC)CCCCCCC)CCCCN(CCC)CCC (stereo not shown) : does PDI equal or exceed 0.03?
[out] criterion not met

[in] Quick check: does CCCCC(CCCC)C(=O)OCCCCCCC(O)(CCCCCCOC(=O)C(CCCC)CCCC)CCCCOC(=O)C1CCN(C)CC1 [CL15F 6-4] have PDI greater than or equal to 0.03?
[out] criterion met

[in] Does the compound CCCCCCCCCC(CCCCC)C(=O)OCCCCCCC(O)(CCCCCCOC(=O)C(CCCCC)CCCCCCCCC)CCCCOC(=O)C1CCN(C)CC1 (stereo not shown) [CL15F 11-5] have recorded PDI that is 0.03 or more?
[out] criterion not met

[in] I'd appreciate it if you could say whether CCCCCC(CCCCC)C(=O)OCCCCCCC(O)(CCCCCCOC(=O)C(CCCCC)CCCCC)CCCCN(CCC)CCC has PDI at least equal to 0.03.
[out] criterion met

[in] Threshold query (PDI >= 0.03) on CCCCCCC(CCCCCC)C(=O)OCCCCCCC(O)(CCCCCCOC(=O)C(CCCCCC)CCCCCC)CCCCOC(=O)C1CCN(C)CC1 [CL15F 8-6]
[out] criterion not met

[in] Quick check, PDI >= 0.03? CCCCC(CCCC)C(=O)OCCCCCCC(O)(CCCCCCOC(=O)C(CCCC)CCCC)CCCCN(CCC)CCC
[out] criterion not met

[in] Threshold query (PDI >= 0.03) on CCCCCCCCCC(CCCCCCC)C(=O)OCCCCCCC(O)(CCCCCCOC(=O)C(CCCCCCC)CCCCCCCCC)CCCCN(CCC)CCC (stereo not shown)
[out] criterion not met

[in] Threshold query (PDI >= 0.03) on CCCCCCCCCC(CCCCCCCCC)C(=O)OCCCCCCC(O)(CCCCCCOC(=O)C(CCCCCCCCC)CCCCCCCCC)CCCCOC(=O)C1CCN(C)CC1 [CL15F 11-9]
[out] criterion not met
